Molecular target: Recombinant B56α (UniProt Q15172)
Assay: ITC; purified full-length recombinant B56α and synthetic ADAM17 peptides
recorded metric: pKd
FYI, pKd means -log10 of a concentration in mol per litre.

May I ask what pKd has been recorded for synthetic ADAM17 peptide engineered for optimal binding (LDTIQEEE) ? 6.05
